Experiment: Cytotoxicity colorimetric assay, NIH/3T3
Format: cell-based, mouse
Settings: mouse, NIH/3T3 cells, one hour in serum-free media
Observed property: EC50 at 1 h (µg/mL)
Number in µg/mL, nothing else.

Ask | Name the reported EC50 at 1 h value associated with the compound COC(=O)c1cccc(C(=O)N[C@@H](CCCCN)C(=O)Nc2ccc(OC)c(C(=O)N[C@@H](CCCCN)C(=O)Nc3ccc(OC)c(C(=O)N[C@@H](CCCCN)C(=O)Nc4ccc(OC)c(C(=O)N[C@@H](CCCCN)C(=O)Nc5ccc(OC)c(C(N)=O)c5)c4)c3)c2)c1
Reply | 1000

Ask | Now the compound COc1cc(OC)c(C(=O)N[C@H]2CC[C@@H](NC(=O)c3cc(C(=O)NCCN(C)C)c(OCCCCCN)cc3OCCCCCN)CC2)cc1C(=O)N[C@H]1CC[C@@H](NC(=O)c2cc(C(=O)NCCN(C)C)c(OCCCCCN)cc2OCCCCCN)CC1
Reply | 500

---

# EC50 per entry
Test system: isolated human erythrocytes
Experiment: cells
Assay type: cell-based
Conditions: Homo sapiens, Erythrocyte, 1 h, human RBC, 1 hour at 37° C.; read-out: Hemolysis EC50

COc1ccc(NC(=O)[C@@H](CCCNC(=N)N)NC(=O)c2cc(NC(=O)[C@@H](CCCNC(=N)N)NC(=O)c3cc(NC(=O)[C@@H](CCCNC(=N)N)NC(=O)c4cc(NC(=O)[C@H](N)CCCNC(=N)N)ccc4OC)ccc3OC)ccc2OC)cc1C(=O)N[C@H](Cc1c[nH]c2ccccc12)C(=O)O [Compound 303]: ~500 µg/mL

Ask | What is its EC50 for isolated human erythrocytes? Entry: COc1ccc(NC(=O)[C@@H](CCCNC(N)=O)NC(=O)c2cc(NC(=O)[C@@H](CCCNC(=N)N)NC(=O)c3cc(NC(=O)[C@@H](CCCNC(=N)N)NC(=O)c4cc(NC(C)=O)ccc4OC)ccc3OC)ccc2OCC(=O)O)cc1C(=O)N[C@H](Cc1c[nH]c2ccccc12)C(N)=O [Compound 332]
Reply | 1000 µg/mL

Ask | // same read-out, input: COc1ccc(NC(=O)[C@H](CCCNC(=N)N)NC(=O)c2cc(NC(=O)[C@H](CCCNC(=N)N)NC(=O)c3cc(NC(=O)[C@H](CCC(=O)O)NC(=O)c4cc(NC(=O)[C@@H](N)CCCNC(=N)N)ccc4OC)ccc3OC)ccc2OC)cc1C(N)=O [Compound 325]
Reply | > 1000 µg/mL

Ask | Now consider COc1ccc(NC(=O)[C@H](CCCCN)NC(=O)c2cc(NC(=O)[C@H](CCCCN)NC(=O)c3cc(NC(=O)[C@H](CCCCN)NC(=O)c4cc(NC(=O)[C@@H](N)CCCCN)ccc4OC)ccc3OC)ccc2OCC(=O)O)cc1C(=O)N[C@@H](Cc1c[nH]c2ccccc12)C(N)=O [Compound 348] and answer again.
Reply | > 1000 µg/mL

Ask | Next up: COc1cc(OC)c(C(=O)N[C@H]2CC[C@@H](NC(=O)c3cc(C(=O)NCCN(C)C)c(OCCCCCN)cc3OCCCCCN)CC2)cc1C(=O)N[C@H]1CC[C@@H](NC(=O)c2cc(C(=O)NCCN(C)C)c(OCCCCCN)cc2OCCCCCN)CC1 [Compound 363]
Reply | > 1000 µg/mL

Ask | Next record, please: COc1ccc(NC(=O)[C@@H](CCCNC(=N)N)NC(=O)c2cc(NC(=O)[C@@H](CCCNC(=N)N)NC(=O)c3cc(NC(=O)[C@@H](CCCNC(=N)N)NC(=O)c4cc(NC(=O)[C@H](N)CCCNC(=N)N)ccc4OCC(=O)O)ccc3OC)ccc2OC)cc1C(N)=O [Compound 283]
Reply | > 1000 µg/mL

Ask | What about this compound? COc1ccc(NC(=O)[C@H](CCCCN)NC(=O)c2cc(NC(=O)[C@H](CCCCN)NC(=O)c3cc(NC(=O)[C@H](CCCCN)NC(=O)c4cc(NC(=O)[C@H](CCCCN)NC(=O)c5c[nH]c6ccccc56)ccc4OC)ccc3OC)ccc2OC)cc1C(N)=O [Compound 349]
Reply | > 1000 µg/mL
